- EXPERIMENTAL PROTOCOL: amyloid nucleation score (Sup35N fusion, yeast selection) (log enrichment); library NNK2; higher = more nucleation; inactive = no reads after selection;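 further: zero at mode of non-aggregating sequences after 7 days selection at 30°C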
ASSAY ENDPOINT: amyloid nucleation score

A selection of reference data follows.
• HEVYNKGPT = inactive
• MELCYVILWYYIFSCGWWRS = inactive
• LRSEFRFIYLRLTWKVR = inactive
• RIFITIRIINPPKDFFIRCY = inactive
• YKAAIGFCINQCLRHHVTKR = inactive

Consider the additional sequence presented here.
Problem: Need amyloid nucleation score, item VCDRFWFSLDLWLFIRTFRF
Result: -0.679

###

- EXPERIMENTAL PROTOCOL: amyloid nucleation score (Sup35N fusion, yeast selection) (log enrichment); library NNK2; higher = more nucleation; inactive = no reads after selection
Mark 1 for reported amyloid nucleation score of -0.4 or greater; mark 0 for anything smaller.

* VIGCAQWFYFADMRGMPRNQ | 1
* CLAVSSDVDSQGKGIRIYIL | 0
* LCWSYCRVKCGHMFVGVRGS | 1
* HSFHTVSTARRLKQDPYMR | 1
* TCTVASLYLGAFDWNYVEAV | 1

Problem: Is amyloid nucleation score for DEIQGLNRRYLPRG at or above -0.4?
Result: 1

Problem: Is amyloid nucleation score for MANSTLRV at or above -0.4?
Result: 1

Problem: Is amyloid nucleation score for FNVKWMRW at or above -0.4?
Result: 1

Problem: Is amyloid nucleation score for SWRIDNVGSRWSTMVCC at or above -0.4?
Result: 1

Problem: Is amyloid nucleation score for IVVKFCWCVGQSRYTGMSTN at or above -0.4?
Result: 1

Problem: Is amyloid nucleation score for HINFRSVITVV at or above -0.4?
Result: 0

Problem: Is amyloid nucleation score for LQNFRCTGCVLFCMHICPAM at or above -0.4?
Result: 1

Problem: Is amyloid nucleation score for MMSSRILGVFDSSSTICVRH at or above -0.4?
Result: 1

Problem: Is amyloid nucleation score for GKESTTKH at or above -0.4?
Result: 0

Problem: Is amyloid nucleation score for CINLTLYFMQ at or above -0.4?
Result: 1

Problem: Is amyloid nucleation score for GNLDDTSLYCLYSLVSSRCS at or above -0.4?
Result: 1

###

- EXPERIMENTAL PROTOCOL: amyloid nucleation score (Sup35N fusion, yeast selection) (log enrichment); library NNK1; higher = more nucleation; inactive = no reads after selection
ASSAY ENDPOINT: amyloid nucleation score

A selection of reference data follows.
* HIAHTEPGAIWV | inactive
* DTNVVWYYLSWDSPGNGDWK | inactive
* LENYDRGDSTRHIDCRLLFL | 0.275
* WQQGLVCQI | 0.241
* TLITWTLVSVGIWTMQS | 1.56
* VHYWLVNSSTKRGRPFASAF | -0.231

Consider the additional substance presented here.
Problem: Need amyloid nucleation score, item SKFTYRV
Result: -0.302

###

- EXPERIMENTAL PROTOCOL: amyloid nucleation score (Sup35N fusion, yeast selection) (log enrichment); library NNK2; higher = more nucleation; inactive = no reads after selection
ASSAY ENDPOINT: amyloid nucleation score

- WFHVITFFLGASCIMWTKTR: inactive
- NTIQCY: inactive
- PFHPICVYKRPFLCPE: inactive
- NIWRRSSSV: inactive
- YMFDFYFVLYESKYAWINPK: inactive

Problem: Need amyloid nucleation score, item KNSGSMIRWIFIRGSTTIEK
Result: inactive

Problem: Need amyloid nucleation score, item SWGSVRNRMCMSGGRKSSDA
Result: inactive

###

- EXPERIMENTAL PROTOCOL: amyloid nucleation score (Sup35N fusion, yeast selection) (log enrichment); library NNK1; higher = more nucleation; inactive = no reads after selection
ASSAY ENDPOINT: amyloid nucleation score

* YPGRWSSYRLEGSTKNARNG | inactive
* RRLKETKT | inactive
* VGTTDG | inactive
* FFYNLFDILFFSFFRILSII | inactive

###

- EXPERIMENTAL PROTOCOL: amyloid nucleation score (Sup35N fusion, yeast selection) (log enrichment); library NNK2; higher = more nucleation; inactive = no reads after selection
ASSAY ENDPOINT: amyloid nucleation score

A selection of reference data follows.
* LALNLQNCTRGGFTILTVS | inactive
* NFSNVFWKFISRWLTAF | inactive
* SQLLDSLQNGRGCYSM | inactive
* NFGGIKKLYNTMRSYWLGTR | -1.22
* LRSLGAGAIYMPALQCRSRS | 0.255

Problem: Need amyloid nucleation score, item SDAVSSILSFYRVPRAVGPE
Result: inactive

Problem: Need amyloid nucleation score, item LGFHWIRNGGGLVTVNLVCV
Result: 0.747

Problem: Need amyloid nucleation score, item TPAWQLYGHTVLAGVQKNMV
Result: -0.077

Problem: Need amyloid nucleation score, item SINYKALAS
Result: inactive

Problem: Need amyloid nucleation score, item ASIYNFYVLNSPFLF
Result: 4.73

###

- EXPERIMENTAL PROTOCOL: amyloid nucleation score (Sup35N fusion, yeast selection) (log enrichment); library NNK2; higher = more nucleation; inactive = no reads after selection
ASSAY ENDPOINT: amyloid nucleation score

- MTCSTWMQLVRYTSVICILT: inactive
- TDMWPVYANRVFYNMSWSRP: inactive
- VILAIGNFSRI: 3.08

###

- EXPERIMENTAL PROTOCOL: amyloid nucleation score (Sup35N fusion, yeast selection) (log enrichment); library NNK1; higher = more nucleation; inactive = no reads after selection
Reported amyloid nucleation score by item:

Problem: Need amyloid nucleation score, item PYWSDKWVFCRLKVVFIHVL
Result: -0.066

Problem: Need amyloid nucleation score, item DFILQMLL
Result: 0.401

Problem: Need amyloid nucleation score, item PFYLEARKVDEVMSLTYIV
Result: -0.693

Problem: Need amyloid nucleation score, item EPCMWKVILYCEYVSLVFVK
Result: -0.974

Problem: Need amyloid nucleation score, item NGTAVCLVRSLVYAHHGRQG
Result: 0.481

Problem: Need amyloid nucleation score, item IDNTLIIDFLFLCNVRTFLR
Result: -0.162

Problem: Need amyloid nucleation score, item MRGTSEFYLVRGRYTCISRG
Result: -0.292

Problem: Need amyloid nucleation score, item FKKSNLPSIVWRCDAWLGSS
Result: 0.334

Problem: Need amyloid nucleation score, item RWGDHKQC
Result: 0.041

Problem: Need amyloid nucleation score, item SCPWLDSSLCFMNVGVLIYK
Result: 3.37

###

- EXPERIMENTAL PROTOCOL: amyloid nucleation score (Sup35N fusion, yeast selection) (log enrichment); library NNK3; higher = more nucleation; inactive = no reads after selection
ASSAY ENDPOINT: amyloid nucleation score

A selection of reference data follows.
- MIRYSVQ: 0.131
- LLLIKPRKVPLIEVCGWETV: inactive
- TRKLIDYLFTVKQVLQSKEE: inactive
- VFCAGLFDTMCCSDGASVEV: 1.16
- CYRCVCFLLCGFVQSDCYDD: inactive

Problem: Need amyloid nucleation score, item NMILFISCEIPGRGVFGRCC
Result: 1.13

Problem: Need amyloid nucleation score, item LYRVVSLSYAVCLILSRCFT
Result: inactive

Problem: Need amyloid nucleation score, item YIVRDNEAYRKYGSANESGC
Result: inactive

###

Reported amyloid nucleation score by item:
- EXPERIMENTAL PROTOCOL: amyloid nucleation score (Sup35N fusion, yeast selection) (log enrichment); library NNK3; higher = more nucleation; inactive = no reads after selection
Returns: the value as a bare number; no unit string appended.

A selection of reference data follows.
• CQYPCVMLCQC = 0.504
• NNRVLQRRPHRFHGANVTWS = -0.677
• KIQRYNILSGTCVFI = 1.51
• AVMVRRYFVDWCRQEVTFHV = 0.088
• IWKGCSACFGKD = -0.222

Problem: Need amyloid nucleation score, item CKIGYPTYNVGVIVSLVVRM
Result: 1.61

Problem: Need amyloid nucleation score, item FLLVMYT
Result: 0.167

Problem: Need amyloid nucleation score, item HNITPESAKVCKVRRCLGSD
Result: 0.619

###

- EXPERIMENTAL PROTOCOL: amyloid nucleation score (Sup35N fusion, yeast selection) (log enrichment); library NNK1; higher = more nucleation; inactive = no reads after selection
ASSAY ENDPOINT: amyloid nucleation score

* LKQSYKKPY | inactive
* MSPWASNHLW | inactive
* PCWGGTLGSVKLVVSSSA | inactive

###

- EXPERIMENTAL PROTOCOL: amyloid nucleation score (Sup35N fusion, yeast selection) (log enrichment); library NNK1; higher = more nucleation; inactive = no reads after selection
ASSAY ENDPOINT: amyloid nucleation score
Returns: the value as a bare number; no unit string appended.

A selection of reference data follows.
- AAGRMIRIMVTGVRLDKDKD: -0.257
- FVWIWYCPIYHCEVLARSPR: -0.614
- IMGVDVLGYTLDPVGDCNVF: 0.412

Consider the additional sequence presented here.
Problem: Need amyloid nucleation score, item TIECFYGVVSFRHNQYYGAQ
Result: 2.16
